In this section we review reported melting point values for a set of molecules.

O=C(O)c1cccc2cc(Oc3c(Cl)cc(NS(=O)(=O)c4ccc(Cl)cc4Cl)cc3Cl)cnc12
263 to 266 °C
O=C(O)c1ccc2ncc(Oc3c(Cl)cc(NS(=O)(=O)c4ccc(Cl)cc4Cl)cc3Cl)cc2c1
228 to 232 °C
O=S(=O)(Nc1cc(Cl)c(Sc2cnc3ccccc3c2)c(Cl)c1)c1ccccc1Cl
219.6 °C
O=S(=O)(Nc1cc(Cl)c(Oc2nc3ccc(Cl)cc3s2)c(Cl)c1)c1ccc(C(F)(F)F)cc1Cl
82 to 84 °C
O=S(=O)(Nc1cc(Cl)c(Oc2nc3ccc(Cl)cc3s2)c(Cl)c1)c1ccc(Cl)cc1Cl
73 to 75 °C

Give the measured melting point of "COc1ccc2nc(Oc3c(Cl)cc(NS(=O)(=O)c4ccc(C(F)(F)F)cc4Cl)cc3Cl)sc2c1" .
164 to 165 °C

---

A set of molecules tested on PPARγ (Homo sapiens, UniProt P37231), with measured IC50:

Recorded results for 3 molecules are shown here.
O=S(=O)(Nc1cc(Cl)cc(Oc2nc3cc(Cl)ccc3s2)c1)c1ccc(C(F)(F)F)cc1Cl
1000 to 10000 nM
Cc1cc(S(=O)(=O)Nc2cc(Cl)cc(Oc3nc4c(C)cccc4s3)c2)c(Cl)cc1Cl
1000 to 10000 nM
Cc1cc(S(=O)(=O)Nc2cc(Cl)cc(Oc3nc4cc(C#N)ccc4s3)c2)c(Cl)cc1Cl
< 1000 nM

Give the measured IC50 of "O=S(=O)(Nc1cc(Cl)c(Cc2cc3ccccc3cn2)c(Cl)c1)c1ccc(Cl)cc1Cl" .
< 1000 nM

Give the measured IC50 of "Cc1cc(S(=O)(=O)Nc2cc(Cl)cc(Cc3nc4cc(Cl)ccc4s3)c2)c(Cl)cc1Cl" .
< 1000 nM

Give the measured IC50 of "O=S(=O)(Nc1cc(Cl)cc(Oc2nc3ccc(F)cc3s2)c1)c1ccc(C(F)(F)F)cc1Cl" .
< 1000 nM

Give the measured IC50 of "CS(=O)(=O)c1ccc2nc(Oc3ccc(NS(=O)(=O)c4ccc(C(F)(F)F)cc4Cl)cc3Cl)sc2c1" .
< 1000 nM

Give the measured IC50 of "O=S(=O)(Nc1cc(Cl)c(Oc2nc3c(Cl)cccc3s2)c(Cl)c1)c1ccc(C(F)(F)F)cc1Cl" .
1000 to 10000 nM

Give the measured IC50 of CCOC(=O)c1ccc2nc(Oc3cc(Cl)cc(NS(=O)(=O)c4ccc(C(F)(F)F)cc4Cl)c3)sc2c1 [Compound 310] .
< 1000 nM

Give the measured IC50 of "Cc1ccc2nc(Oc3cc(Cl)cc(NS(=O)(=O)c4cc(C)c(Cl)cc4Cl)c3)sc2c1" .
< 1000 nM

Give the measured IC50 of "Cc1cc(S(=O)(=O)Nc2cc(Cl)c(Cc3ccc4ccccc4n3)c(Cl)c2)c(Cl)cc1Cl" .
< 1000 nM

Give the measured IC50 of "O=[N+]([O-])c1ccc2nc(Oc3c(Cl)cc(NS(=O)(=O)c4ccc(C(F)(F)F)cc4Cl)cc3Cl)sc2c1" .
< 1000 nM

Give the measured IC50 of "O=S(=O)(Nc1cc(Cl)cc(Oc2nc3ccc(F)cc3s2)c1)c1ccc(Cl)cc1Cl" .
< 1000 nM

Give the measured IC50 of "O=S(=O)(Nc1cc(Cl)c(Oc2nc3c(Cl)cccc3s2)c(Cl)c1)c1ccc(Cl)cc1Cl" .
1000 to 10000 nM

Give the measured IC50 of "Cc1cc(S(=O)(=O)Nc2cc(Cl)c(Oc3nc4c(Cl)cccc4s3)c(Cl)c2)c(Cl)cc1Cl" .
< 1000 nM

---

Target chain: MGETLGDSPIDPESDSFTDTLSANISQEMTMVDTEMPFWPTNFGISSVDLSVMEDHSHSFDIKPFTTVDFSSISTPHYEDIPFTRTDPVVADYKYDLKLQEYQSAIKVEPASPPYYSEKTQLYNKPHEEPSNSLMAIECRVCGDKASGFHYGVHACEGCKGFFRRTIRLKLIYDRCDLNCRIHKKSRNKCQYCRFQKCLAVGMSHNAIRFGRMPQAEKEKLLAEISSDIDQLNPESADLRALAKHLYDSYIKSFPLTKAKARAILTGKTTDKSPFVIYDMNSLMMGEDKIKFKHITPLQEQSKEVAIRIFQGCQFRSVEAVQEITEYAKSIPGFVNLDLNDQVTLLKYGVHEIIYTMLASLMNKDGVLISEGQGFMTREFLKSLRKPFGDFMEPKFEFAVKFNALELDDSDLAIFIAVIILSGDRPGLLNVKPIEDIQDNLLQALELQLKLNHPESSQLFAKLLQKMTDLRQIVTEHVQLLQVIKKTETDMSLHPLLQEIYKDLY
readout-kind: IC50

Give the measured IC50 of "CC(C)(C)c1ccc(S(=O)(=O)Nc2cc(Cl)cc(Oc3nc4cc(Cl)ccc4s3)c2)cc1" .
> 30 µM

---

A set of compounds tested on PPARγ (Homo sapiens, UniProt P37231), with measured IC50:

Recorded results for 5 compounds are shown here.
CS(=O)(=O)Nc1ccc2nc(Oc3c(Cl)cc(NS(=O)(=O)c4ccc(C(F)(F)F)cc4Cl)cc3Cl)sc2c1
< 1000 nM
O=C(O)c1ccc2ncc(Oc3c(Cl)cc(NS(=O)(=O)c4ccc(Cl)cc4Cl)cc3Cl)cc2c1
< 1000 nM
O=S(=O)(Nc1cc(Cl)c(Oc2nc3ccc(Cl)cc3s2)c(Cl)c1)c1ccc(Cl)cc1Cl
1000 to 10000 nM
O=S(=O)(Nc1cc(Cl)c(Cc2ccc3ccccc3n2)c(Cl)c1)c1ccc(C(F)(F)F)cc1Cl
< 1000 nM
Cc1cccc2sc(Oc3cc(Cl)cc(NS(=O)(=O)c4ccc(C(F)(F)F)cc4Cl)c3)nc12
< 1000 nM

Give the measured IC50 of "O=S(=O)(Nc1cc(Oc2nc3cc(Cl)ccc3s2)cc(Oc2nc3cc(Cl)ccc3s2)c1)c1ccc(Cl)cc1Cl" .
1000 to 10000 nM

Give the measured IC50 of O=S(=O)(Nc1cc(Cl)c([S+]([O-])c2cnc3ccccc3c2)c(Cl)c1)c1ccccc1 (centres unmarked) .
1000 to 10000 nM

Give the measured IC50 of "O=S(=O)(Nc1cc(Cl)cc(Oc2nc3cc(Cl)ccc3s2)c1)c1ccc(Cl)cc1Cl" .
< 1000 nM

Give the measured IC50 of "Cc1ccc2nc(Oc3cc(Cl)cc(NS(=O)(=O)c4ccc(Cl)cc4Cl)c3)sc2c1" .
< 1000 nM

Give the measured IC50 of "O=S(=O)(Nc1cc(Oc2nc3cc(Cl)ccc3s2)cc(Oc2nc3cc(Cl)ccc3s2)c1)c1ccc(C(F)(F)F)cc1Cl" .
1000 to 10000 nM

Give the measured IC50 of "O=S(=O)(Nc1cc(Cl)c(Sc2cnc3ccccc3c2)c(Cl)c1)c1ccc(C(F)(F)F)cc1Cl" .
< 1000 nM

Give the measured IC50 of "COc1cccc2sc(Oc3cc(Cl)cc(NS(=O)(=O)c4cc(C)c(Cl)cc4Cl)c3)nc12" .
< 1000 nM

Give the measured IC50 of "CC(=O)c1ccc(S(=O)(=O)Nc2cc(Cl)c(Oc3nc4ccc(Cl)cc4s3)c(Cl)c2)cc1" .
1000 to 10000 nM

Give the measured IC50 of "Cc1cc(S(=O)(=O)Nc2cc(Oc3nc4cc(Cl)ccc4s3)cc(Oc3nc4cc(Cl)ccc4s3)c2)c(Cl)cc1Cl" .
< 1000 nM
